// data source = patent US20130287807A1

Reported values of OD halfmax dilution factor of the parental antibody (1:X) (dilutionfactor(1:x)) for individual entries
Molecular target: monoclonal antibody MV-002
Assay: ELISA on peptide-BSA; code 2 = medium binding, OD halfmax 1:40000-320000
Ends that are not written are not given here.

binder	value reported
GELFFEKC [p4795]	40000 to 320000
Ac-GEIYFERC [p4804]	40000 to 320000

Lab note: next binder to report on.
For this binder ( GSLFFWPC [p4688] ), measured OD halfmax dilution factor of the parental antibody (1:X) (dilutionfactor(1:x)) is 40000 to 320000
